# Tested on: MOLT-4 leukemia
# ASSAY_EXPLANATION: NCI tumour cell line growth inhibition, 48 h
Where a SMILES comes first, the peptide text is derived from it. The star is where a group is joined. Boc = CC(C)(C)OC(=O)*
Each record here notes measured TGI.

{"columns": ["COMPOUND", "STUDY_SYSTEM", "TGI"],
 "data": [
  ["COC(=O)C(Cc1c[nH]c2ccccc12)NC(=O)C(Cc1c[nH]c2ccccc12)NC(=O)C(Cc1c[nH]c2ccccc12)NC(=O)C(Cc1c[nH]c2ccccc12)NC(=O)C(Cc1c[nH]c2ccccc12)NC(=O)C(Cc1c[nH]c2ccccc12)NC(=O)C(Cc1c[nH]c2ccccc12)NC(=O)C(Cc1c[nH]c2ccccc12)NC(=O)OC(C)(C)C (configuration not stated) (Boc-WWWWWWWW-OMe; configuration not given here)", "MOLT-4 leukemia", "> 100 µM"],
  ["N#CC1CC2(CCN1C(=O)c1ccccc1)OCCO2 (configuration not stated)", "MOLT-4 leukemia", "> 100 µM"],
  ["COc1cc2c(cc1OCCCC(=O)Nc1ccc3ccc4cccc5ccc1c3c45)N=C[C@@H]1CCCN1C2=O", "MOLT-4 leukemia", "0.355 µM"],
  ["COc1ccc(SCc2cc(OCc3ccccc3)c(OCc3ccccc3)c(OCc3ccccc3)c2)cc1", "MOLT-4 leukemia", "3.3 µM"],
  ["CC(C)(c1ccccc1)c1ccc(OC#N)cc1", "MOLT-4 leukemia", "> 100 µM"],
  ["COc1cc(Nc2ncc(F)c(Nc3ccc4c(n3)N(COP(=O)(O)O)C(=O)C(C)(C)O4)n2)cc(OC)c1OC", "MOLT-4 leukemia", "> 62 µM"],
  ["Oc1ccc(-c2nc3ccc(Cl)cc3s2)cc1", "MOLT-4 leukemia", "> 100 µM"]
]}
